Biological target: Farnesyltransferase (Saccharomyces cerevisiae S288c, UniProt P22007+P29703)
Sequence (P29703 whole entry): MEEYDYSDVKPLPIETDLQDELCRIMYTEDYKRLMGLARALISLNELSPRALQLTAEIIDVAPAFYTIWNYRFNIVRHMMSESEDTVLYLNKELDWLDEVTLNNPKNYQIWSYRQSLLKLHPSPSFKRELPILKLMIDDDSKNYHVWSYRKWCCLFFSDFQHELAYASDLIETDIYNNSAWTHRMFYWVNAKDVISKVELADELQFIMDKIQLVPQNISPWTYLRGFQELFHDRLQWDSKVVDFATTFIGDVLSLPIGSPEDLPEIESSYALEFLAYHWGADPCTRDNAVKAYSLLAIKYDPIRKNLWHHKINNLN
Sequence (P22007 whole entry): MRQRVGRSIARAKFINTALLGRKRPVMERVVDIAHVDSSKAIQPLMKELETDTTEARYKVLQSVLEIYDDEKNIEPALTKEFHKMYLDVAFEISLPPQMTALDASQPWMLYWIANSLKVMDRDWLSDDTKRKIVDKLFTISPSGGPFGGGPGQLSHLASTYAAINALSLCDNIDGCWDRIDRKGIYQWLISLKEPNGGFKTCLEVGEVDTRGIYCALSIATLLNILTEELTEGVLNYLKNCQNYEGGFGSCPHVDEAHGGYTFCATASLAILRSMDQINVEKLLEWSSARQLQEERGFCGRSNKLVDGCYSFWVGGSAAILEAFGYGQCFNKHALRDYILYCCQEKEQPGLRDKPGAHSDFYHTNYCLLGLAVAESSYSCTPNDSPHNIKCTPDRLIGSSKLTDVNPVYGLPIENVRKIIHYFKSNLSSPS
Assay: Inhibitory activity against farnesyltransferase.
Here the recorded log10(IC50) is given for each entry.
Scale: decimal log of IC50, IC50 in nM.

Determine from records and report log10(IC50) for N[C@@H](CS)C(=O)Nc1ccc(NC(=O)Cc2cccc(Cl)c2Cl)c(C(=O)c2ccccc2)c1 2.62

Give the reported log10(IC50) for this molecule. N[C@@H](CS)C(=O)Nc1ccc(NC(=O)Cc2c(Cl)cccc2Cl)c(C(=O)c2ccccc2)c1 2.53

State its log10(IC50) for this molecule: Cc1ccccc1CC(=O)Nc1ccc(NC(=O)[C@@H](N)CS)cc1C(=O)c1ccccc1 2.60

Next:
Supply recorded log10(IC50) for N[C@@H](CS)C(=O)Nc1ccc(NC(=O)Cc2ccc(Cl)c(Cl)c2)c(C(=O)c2ccccc2)c1 here. 2.68

Using the record for N[C@@H](CS)C(=O)Nc1ccc(NC(=O)C(=O)c2ccccc2)c(C(=O)c2ccccc2)c1 , state its measured log10(IC50). 3.15

Provide only the value of recorded log10(IC50) for N[C@@H](CS)C(=O)Nc1ccc(NC(=O)Cc2ccc(C(F)(F)F)cc2)c(C(=O)c2ccccc2)c1 2.86

State its log10(IC50) for this molecule: CC(=O)Nc1ccc(NC(=O)[C@@H](N)CS)cc1C(=O)c1ccccc1 3.88

Write down log10(IC50) measured for item N[C@@H](CS)C(=O)Nc1ccc(NC(=O)c2cccc3ccccc23)c(C(=O)c2ccccc2)c1 3.66

Let me know recorded log10(IC50) for CC(C(=O)Nc1ccc(NC(=O)[C@@H](N)CS)cc1C(=O)c1ccccc1)c1ccccc1 (stereo partly drawn) , thanks. 2.81

# return recorded log10(IC50) for input Cc1ccc(CC(=O)Nc2ccc(NC(=O)[C@@H](N)CS)cc2C(=O)c2ccccc2)cc1 1.89

Name the recorded log10(IC50) of the item N[C@@H](CS)C(=O)Nc1ccc(NC(=O)Cc2ccccc2)c(C(=O)c2ccccc2)c1 in your answer. 2.81

Quickly give me recorded log10(IC50) for N[C@@H](CS)C(=O)Nc1ccc(NC(=O)CCc2ccccc2)c(C(=O)c2ccccc2)c1 3.11

Provenance of the data: ChEMBL document CHEMBL1134575
